Consider the following molecules; for each one, report its pIC50.
# SYSTEM NAME: CyclinA2/CDK2 (Homo sapiens, UniProt P20248)
# Construct: purchased CRELUX Protein Services
# EXPERIMENTAL PROTOCOL: Fluorescence Polarization (FP) competitive binding assay, Cyclin A2/Cdk2;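 note: plates equilibrated two hours at room temperature before polarization reading, IC50 fitted from eight-concentration compound titration curves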
# ASSAY SETUP: 8 nM Cyclin A2/Cdk2, 2 nM FAM probe; average of 2-3 independent experiments; read-out: Cyclin A FP IC50
*1 amine or outer side, *2 acyl side, *3 side chain or, on linkers, in order; H or OH if unused. Where a SMILES comes first, the peptide text is derived from it. Bridges are numbered along the chain shown (N, C = ends). [ ]: non-standard residue; d: D form. The star is where a group is joined. X205 = CC(C)C(=O)N1[C@@H]2COC[C@H]1C=C(c1ccc(F)cc1C[C@@H](C(=O)[*:2])N(C)[*:1])C2; NMePhe(2-(4-MorPh),5-Cl) = CN[C@@H](Cc1cc(Cl)ccc1-c1ccc(N2CCOCC2)cc1)C(=O)O; X70 = CN1CCC[C@@H](c2ccc(-c3ccc(Cl)cc3C[C@@H](C(=O)[*:2])N(C)[*:1])cc2)C1; X122 = CN([C@@H](Cc1cc(Cl)ccc1C1=CCN(C(=O)C(C)(C)C)CC1)C(=O)[*:2])[*:1]; X84 = CC(=O)N1CCC(c2ccc(Cl)cc2C[C@@H](C(=O)[*:2])N(C)[*:1])CC1; NMehhhLys(Me) = CN([C@@H](CCCCCCCN(C)[*:3])C(=O)[*:2])[*:1]; NMe(hhhLys) = CN([C@@H](CCCCCCCN[*:3])C(=O)[*:2])[*:1]; X152 = CN([C@@H](Cc1cc(Cl)ccc1OC1CC1)C(=O)[*:2])[*:1]; X28 = CN([C@@H](Cc1cc(Cl)cnc1OC1CCC1)C(=O)[*:2])[*:1]; cBuCO(3,3-F2-1-CF3) = O=C(C1(C(F)(F)F)CC(F)(F)C1)*; X182 = N#Cc1ccc(CC[C@H](N[*:1])C(=O)[*:2])cn1; Pro(trans-4-F) = O=C(O)[C@@H]1C[C@@H](F)CN1; Gly(cPr) = N[C@H](C(=O)O)C1CC1; X77 = CC(F)(C(=O)*)C(F)(F)F
pIC50 here: minus log base 10 of the concentration, concentration in moles per litre.

Quick note, pIC50 for CC(C)C[C@@H]1NC(=O)[C@@H](N(C)C(=O)[C@@H](NC(=O)[C@@H]2C[C@@H](F)CN2C(=O)C2(C(F)(F)F)CC(F)(F)C2)C2CC2)CCCCCCCN(C)C(=O)[C@H](Cc2cc(Cl)ccc2-c2ccc([C@@H]3CCCN(C)C3)cc2)N(C)C1=O [Example 411] ({cBuCO(3,3-F2-1-CF3)}-[Pro(trans-4-F)][Gly(cPr)][NMehhhLys(Me)]L[X70]; lactam 3-C) landed at 7.70

Form: molecule = CC(C)C[C@@H]1NC(=O)[C@@H](N(C)C(=O)[C@@H](NC(=O)[C@@H]2C[C@@H](F)CN2C(=O)C2(C(F)(F)F)CC(F)(F)C2)C2CC2)CCCCCCCN(C)C(=O)[C@H](Cc2cc(Cl)ccc2OC2CC2)N(C)C1=O [Example 314] ({cBuCO(3,3-F2-1-CF3)}-[Pro(trans-4-F)][Gly(cPr)][NMehhhLys(Me)]L[X152]; lactam 3-C) ; pIC50 = 7.52

Record CC(C)C[C@@H]1NC(=O)[C@@H](N(C)C(=O)[C@@H](NC(=O)[C@@H]2C[C@@H](F)CN2C(=O)C2(C(F)(F)F)CC(F)(F)C2)C2CC2)C/C=C\CCCCN(C)C(=O)[C@H](Cc2cc(Cl)ccc2-c2cnn(C)c2)N(C)C1=O [Example 168] . Reported pIC50: 7.70

According to the records, this molecule CC(C)C[C@@H]1NC(=O)[C@@H](N(C)C(=O)[C@@H](NC(=O)[C@@H]2C[C@@H](F)CN2C(=O)C2(C(F)(F)F)CCC2)C2CC2)CC=CCCCCN(C)C(=O)[C@H](Cc2cc(Cl)ccc2Oc2ncccn2)N(C)C1=O [Example 157] displays pIC50 of 6.44

For this molecule ( CC(C)C[C@@H]1NC(=O)[C@@H](N(C)C(=O)[C@@H](NC(=O)[C@@H]2C[C@@H](F)CN2C(=O)C2(C(F)(F)F)CC(F)(F)C2)C2CC2)CCCCCCCNC(=O)[C@H](Cc2cc(Cl)ccc2C2=CCN(C(=O)C(C)(C)C)CC2)N(C)C1=O [Example 99] ({cBuCO(3,3-F2-1-CF3)}-[Pro(trans-4-F)][Gly(cPr)][NMe(hhhLys)]L[X122]; lactam 3-C) ), measured pIC50 is 7.70

// sample CC(C)C[C@@H]1NC(=O)[C@@H](N(C)C(=O)[C@@H](NC(=O)[C@@H]2C[C@@H](F)CN2C(=O)C2(C(F)(F)F)CC(F)(F)C2)C2CC2)CCCC=CCCNC(=O)[C@H](Cc2cc(Cl)ccc2-c2cnn(C3CC3)c2)N(C)C1=O [Example 287] , its pIC50 was 7.22

Record CC(C)C[C@@H]1NC(=O)[C@@H](N(C)C(=O)[C@@H](NC(=O)[C@@H]2C[C@@H](F)CN2C(=O)C2(C(F)(F)F)CC(F)(F)C2)C2CC2)CCCCCCCN(C)C(=O)[C@H](Cc2cc(F)ccc2C2=C[C@@H]3COC[C@H](C2)N3C(=O)C(C)C)N(C)C1=O [Example 329] ({cBuCO(3,3-F2-1-CF3)}-[Pro(trans-4-F)][Gly(cPr)][NMehhhLys(Me)]L[X205]; lactam 3-C) , field pIC50: 7.70

// field: pIC50; key: CC(=O)N1CCC(c2ccc(Cl)cc2C[C@H]2C(=O)N(C)CCCCCCC[C@H](N(C)C(=O)[C@@H](NC(=O)[C@@H]3C[C@@H](F)CN3C(=O)C3(C(F)(F)F)CC(F)(F)C3)C3CC3)C(=O)N[C@@H](CC(C)C)C(=O)N2C)CC1 [Example 52] ({cBuCO(3,3-F2-1-CF3)}-[Pro(trans-4-F)][Gly(cPr)][NMehhhLys(Me)]L[X84]; lactam 3-C) ; value = 7.40

The recorded pIC50 for CC(C)C[C@@H]1NC(=O)[C@@H](N(C)C(=O)[C@H](CCc2ccc(C#N)nc2)NC(=O)[C@@H]2C[C@@H](F)CN2C(=O)C2(C(F)(F)F)CC(F)(F)C2)CCCCCCCN(C)C(=O)[C@H](Cc2cc(Cl)ccc2-c2ccc(N3CCOCC3)cc2)N(C)C1=O [Example 416] ({cBuCO(3,3-F2-1-CF3)}-[Pro(trans-4-F)][X182][NMehhhLys(Me)]L[NMePhe(2-(4-MorPh),5-Cl)]; lactam 3-C) is 7.40

Measured pIC50 of CC(C)C[C@@H]1NC(=O)[C@@H](N(C)C(=O)[C@@H](NC(=O)[C@@H]2C[C@@H](F)CN2C(=O)C2(C(F)(F)F)CCC2)C2CC2)C/C=C\CCCCN(C)C(=O)[C@H](Cc2cc(Cl)ccc2-c2cnn(C3CC3)c2)N(C)C1=O [Example 176] : 7.70

Entry CC(C)C[C@@H]1NC(=O)[C@@H](N(C)C(=O)[C@@H](NC(=O)[C@@H]2C[C@@H](F)CN2C(=O)C2(C(F)(F)F)CC(F)(F)C2)C2CC2)CCCCCCCNC(=O)[C@H](Cc2cc(Cl)cnc2OC2CCC2)N(C)C1=O [Example 142] ({cBuCO(3,3-F2-1-CF3)}-[Pro(trans-4-F)][Gly(cPr)][NMe(hhhLys)]L[X28]; lactam 3-C) ; pIC50 = 7.40

Lab note: measured pIC50 of CC(C)C[C@@H]1NC(=O)[C@@H](N(C)C(=O)[C@@H](NC(=O)[C@@H]2C[C@@H](F)CN2C(=O)C(C)(F)C(F)(F)F)C2CC2)CCCCCCCN(C)C(=O)[C@H](Cc2cc(Cl)ccc2-c2ccc(N3CCOCC3)cc2)N(C)C1=O (stereo partly drawn) [Example 377] (X77-[Pro(trans-4-F)][Gly(cPr)][NMehhhLys(Me)]L[NMePhe(2-(4-MorPh),5-Cl)]; lactam 3-C) was 7.70

----------
# System: OVCAR3 cells
# EXPERIMENTAL PROTOCOL: MTT proliferation assay, OVCAR3;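 note: compound given as an 8- or 10-point series, one day after plating, with exposure covering roughly 3-4 cell doublings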
# Assay type: cell-based
# ASSAY SETUP: 5 days compound exposure, 1:3 serial dilution starting at 10 μM
What GI50 was measured for each of the following?
Give the quantity in nM, number only.

Consider CC(C)C[C@@H]1NC(=O)[C@@H](N(C)C(=O)[C@@H](NC(=O)[C@@H]2C[C@@H](F)CN2C(=O)C2(C(F)(F)F)CC(F)(F)C2)C2CC2)CC=CCCCCNC(=O)[C@H](Cc2cc(Cl)ccc2C2=CCC(F)(F)CC2)N(C)C1=O [Example 22] . Its measured GI50 is 1800

Per the record, CC(C)C[C@@H]1NC(=O)[C@@H](N(C)C(=O)[C@@H](NC(=O)[C@@H]2C[C@@H](F)CN2C(=O)C2(C(F)(F)F)CC(F)(F)C2)C2CC2)C/C=C\CCCCN(C)C(=O)[C@H](Cc2cc(Cl)cnc2OC2CC2)N(C)C1=O [Example 258] has GI50 of 70
